Attribution: the Kinase Knowledgebase extract (Sharma et al. 2016)

- Target or test system: PIK3CB;PIK3CG;PIK3CD;PIK3CA (human) (UniProt P48736)
- Experimental protocol: Enzyme Assay
Measured parameter: IC50 (nM)

The following molecules have reported results that may help.
[
  {
    "Molecule": "O=C(c1nn(C2CCCN(CCN3CCOCC3)C2)c2c1CS(=O)(=O)c1ccccc1-2)N1CCOCC1 (stereo not drawn)",
    "Unit descriptor": "nM",
    "IC50": 122
  },
  {
    "Molecule": "O=C(c1nn(-c2cccc(-c3cccnc3)c2)c2c1CS(=O)(=O)c1ccccc1-2)N1CCOCC1",
    "Unit descriptor": "nM",
    "IC50": 280
  },
  {
    "Molecule": "O=C(c1nn(-c2ccc(CN3CCCCC3)nc2)c2c1CS(=O)(=O)c1ccccc1-2)N1CCOCC1",
    "Unit descriptor": "nM",
    "IC50": 370
  },
  {
    "Molecule": "COc1ccc2c(c1)S(=O)(=O)Cc1c(C(=O)N3CCOCC3)nn(-c3ccccc3)c1-2",
    "Unit descriptor": "nM",
    "IC50": 349
  }
]

[1] O=C(c1nn(-c2ccc(CNC3CCCOC3)cc2)c2c1CS(=O)(=O)c1ccccc1-2)N1CCOCC1 (stereo not drawn)
[2] O=C(c1nn(-c2ccc(CNC3CCOC3)cc2)c2c1CS(=O)(=O)c1ccccc1-2)N1CCOCC1 (stereo not drawn)
[3] O=C(c1nn(-c2ccc(CN3CCOCC3)cc2)c2c1CS(=O)(=O)c1ncccc1-2)N1CCOCC1
[4] O=C(c1nn([C@@H]2CCN(C3CCOCC3)C2)c2c1CS(=O)(=O)c1c(F)cccc1-2)N1CCOCC1
Qu. With regard to IC50, arrange the entries in ascending order, please. Give the order by naming the labels one after another as requested.
Ans. 2, 1, 3, 4
(2: 156 nM, 1: 224 nM, 3: 400 nM, 4: 2040 nM)

====

- Target or test system: PIK3CB;PIK3CG;PIK3CD;PIK3CA (human) (UniProt P48736)
- Experimental protocol: Enzyme Assay
pIC50: −log10 of the molar value.
Measured parameter: pIC50

The following molecules have reported results that may help.
[
  {
    "Molecule": "O=C(c1nn(CCN2CCOCC2)c2c1CS(=O)(=O)c1ccccc1-2)N1CCOCC1",
    "Assay value": 6.10
  },
  {
    "Molecule": "CN1CCCC1CCn1nc(C(=O)N2CCOCC2)c2c1-c1ccccc1S(=O)(=O)C2 (stereo not drawn)",
    "Assay value": 5.91
  },
  {
    "Molecule": "O=C(c1nn(-c2cccc(CN3CCC(O)CC3)c2)c2c1CS(=O)(=O)c1ccccc1-2)N1CCOCC1",
    "Assay value": 6.24
  },
  {
    "Molecule": "O=C(c1nn(-c2cccc(CN3CCCC3)c2)c2c1CS(=O)(=O)c1ccccc1-2)N1CCOCC1",
    "Assay value": 6.29
  },
  {
    "Molecule": "O=C(c1nn(-c2ccccc2)c2c1C(CC1CC1)S(=O)(=O)c1ccccc1-2)N1CCOCC1 (stereo not drawn)",
    "Assay value": 5.41
  }
]

[I] O=C(c1nn(C2CCCCC2)c2c1CS(=O)(=O)c1ccccc1-2)N1CCOCC1
[II] O=C(c1nn(-c2ccc(CN3CCOCC3)nc2)c2c1CS(=O)(=O)c1ccccc1-2)N1CCOCC1
[III] Cn1nc(C(=O)N2CCOCC2)c2c1-c1ccccc1S(=O)(=O)C2Cc1ccccc1 (stereo not drawn)
[IV] O=C(c1nn(-c2ccccc2)c2c1CS(=O)(=O)c1ccc([N+](=O)[O-])cc1-2)N1CCOCC1
Qu. With regard to pIC50, arrange the entries in ascending order, please. Give the order by naming the labels one after another as requested.
Ans. III, IV, II, I
(III: 5.28, IV: 5.74, II: 6.21, I: 6.87)

[P] COCCN(C)Cc1ccc(-n2nc(C(=O)N3CCOCC3)c3c2-c2ccccc2S(=O)(=O)C3)cc1
[Q] COC1CCCN(C(=O)c2cccc(-n3nc(C(=O)N4CCOCC4)c4c3-c3ccccc3S(=O)(=O)C4)c2)C1 (stereo not drawn)
Qu. Pick one: P or Q . Which has the bigger pIC50 number? Field: selected label. Fill in the label of the entry you choose.
Ans. P

[I] COCCNc1ccc2c(c1)-c1c(c(C(=O)N3CCOCC3)nn1C1CCCCC1)CS2(=O)=O
[II] O=C(c1nn([C@H]2CCCN(C3CCCOC3)C2)c2c1CS(=O)(=O)c1c(F)cccc1-2)N1CCOCC1 (stereo partly drawn)
[III] O=C(c1nn(C2CCN(CCC3CCOCC3)CC2)c2c1CS(=O)(=O)c1ccccc1-2)N1CCOCC1
Qu. With regard to pIC50, arrange the entries in ascending order, please. Give the order by naming the labels one after another as requested.
Ans. I, III, II

[A] O=C(c1nn(-c2ccccc2)c2c1CS(=O)(=O)c1c(-c3ccccc3)cccc1-2)N1CCOCC1
[B] O=C(c1nn(-c2ccccc2)c2c1CS(=O)(=O)c1sccc1-2)N1CCOCC1
Qu. Which gives the smaller pIC50 number: A or B ? Field: selected label. Fill in the label of the entry you choose.
Ans. A
(A: 4.75, B: 5.77)

[1] O=C(c1nn(-c2ccccc2)c2c1CS(=O)(=O)c1cc(Br)ccc1-2)N1CCOCC1
[2] O=C(c1nn(C2CCCN(CC3CCOC3)C2)c2c1CS(=O)(=O)c1ccccc1-2)N1CCOCC1 (stereo not drawn)
Qu. Which gives the smaller pIC50 number: 1 or 2 ? Field: selected label. Fill in the label of the entry you choose.
Ans. 1
(1: 6.04, 2: 7.01)
